B1: REST corepressor 3, residues 87 to 134; numbered along this chain, Q9P2K3 (parent)
chain: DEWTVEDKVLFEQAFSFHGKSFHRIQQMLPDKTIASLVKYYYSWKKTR

Variants of: B1
test protocol: abundance fitness (aPCA) (normalised: wild type 0, dead -1); higher = more abundant; growth selection in yeast, the domain comes from the species named
condition details: Homo sapiens
assay readout: abundance fitness

# example entries with known answers
K8H ... -0.594
W44G ... -0.649
E6I ... -0.58
L37V ... -0.618
V9I ... 0.032

// next entry
Find the recorded abundance fitness belonging to W3C and report it.
-0.776

Taken from the Human Domainome abundance scans (Beltran et al. 2025).
